The reported numbers originate from patent US9546164B2.

- TARGET UNDER TEST: hNav1.7 (Homo sapiens (Human))
- Sequence (Q15858 other isoform, or with tags, fused parts or gaps): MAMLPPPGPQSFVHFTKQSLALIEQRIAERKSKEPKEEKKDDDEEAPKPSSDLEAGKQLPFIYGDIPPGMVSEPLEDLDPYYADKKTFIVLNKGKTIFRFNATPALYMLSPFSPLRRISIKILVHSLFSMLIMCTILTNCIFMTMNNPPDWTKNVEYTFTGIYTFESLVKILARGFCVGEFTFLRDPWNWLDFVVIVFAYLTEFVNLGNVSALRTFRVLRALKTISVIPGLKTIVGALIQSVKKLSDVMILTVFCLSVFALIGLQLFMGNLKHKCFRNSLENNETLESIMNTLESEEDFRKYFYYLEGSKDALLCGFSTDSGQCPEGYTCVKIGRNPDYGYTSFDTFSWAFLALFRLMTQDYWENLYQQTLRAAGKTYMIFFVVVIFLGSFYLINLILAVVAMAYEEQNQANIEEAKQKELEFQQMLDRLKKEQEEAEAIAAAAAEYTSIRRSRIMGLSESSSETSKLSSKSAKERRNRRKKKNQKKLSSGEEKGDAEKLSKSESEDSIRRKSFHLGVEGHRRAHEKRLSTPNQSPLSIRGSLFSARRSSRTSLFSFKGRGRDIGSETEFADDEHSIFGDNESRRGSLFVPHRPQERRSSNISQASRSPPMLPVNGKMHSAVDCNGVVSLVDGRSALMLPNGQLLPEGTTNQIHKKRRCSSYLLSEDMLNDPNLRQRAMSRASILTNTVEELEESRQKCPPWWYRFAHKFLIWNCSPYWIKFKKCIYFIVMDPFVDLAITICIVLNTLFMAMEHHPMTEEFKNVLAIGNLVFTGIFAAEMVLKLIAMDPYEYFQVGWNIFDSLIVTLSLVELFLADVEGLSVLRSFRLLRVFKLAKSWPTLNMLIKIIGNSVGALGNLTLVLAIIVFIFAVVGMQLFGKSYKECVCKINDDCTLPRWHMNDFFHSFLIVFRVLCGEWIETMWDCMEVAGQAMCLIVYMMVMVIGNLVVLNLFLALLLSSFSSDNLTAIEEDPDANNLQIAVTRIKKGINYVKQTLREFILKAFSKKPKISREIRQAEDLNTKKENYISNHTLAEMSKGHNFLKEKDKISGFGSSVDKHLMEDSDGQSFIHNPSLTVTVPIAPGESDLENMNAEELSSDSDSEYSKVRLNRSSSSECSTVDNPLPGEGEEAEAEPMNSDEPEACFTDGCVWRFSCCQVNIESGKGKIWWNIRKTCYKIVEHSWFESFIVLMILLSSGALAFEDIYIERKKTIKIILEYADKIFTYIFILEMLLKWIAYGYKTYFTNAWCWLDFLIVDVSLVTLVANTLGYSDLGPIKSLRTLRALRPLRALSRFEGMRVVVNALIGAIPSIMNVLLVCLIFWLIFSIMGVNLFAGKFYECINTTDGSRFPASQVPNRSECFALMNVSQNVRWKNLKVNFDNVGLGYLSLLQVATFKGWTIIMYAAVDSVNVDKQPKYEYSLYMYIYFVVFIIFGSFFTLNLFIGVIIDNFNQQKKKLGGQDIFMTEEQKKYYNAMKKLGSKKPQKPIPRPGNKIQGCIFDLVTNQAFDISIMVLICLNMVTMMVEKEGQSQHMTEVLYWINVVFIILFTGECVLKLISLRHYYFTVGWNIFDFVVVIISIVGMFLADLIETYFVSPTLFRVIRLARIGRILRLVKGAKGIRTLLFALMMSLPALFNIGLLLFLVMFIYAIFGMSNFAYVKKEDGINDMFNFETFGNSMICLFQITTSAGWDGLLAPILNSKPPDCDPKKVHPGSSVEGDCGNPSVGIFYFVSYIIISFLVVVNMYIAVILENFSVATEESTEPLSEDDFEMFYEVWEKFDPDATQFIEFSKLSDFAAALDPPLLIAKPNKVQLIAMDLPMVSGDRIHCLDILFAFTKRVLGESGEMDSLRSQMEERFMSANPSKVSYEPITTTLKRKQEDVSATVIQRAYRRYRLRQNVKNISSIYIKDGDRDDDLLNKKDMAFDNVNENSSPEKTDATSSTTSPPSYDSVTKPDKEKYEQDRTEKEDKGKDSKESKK
- Sequence (Q07699 19-218 partner): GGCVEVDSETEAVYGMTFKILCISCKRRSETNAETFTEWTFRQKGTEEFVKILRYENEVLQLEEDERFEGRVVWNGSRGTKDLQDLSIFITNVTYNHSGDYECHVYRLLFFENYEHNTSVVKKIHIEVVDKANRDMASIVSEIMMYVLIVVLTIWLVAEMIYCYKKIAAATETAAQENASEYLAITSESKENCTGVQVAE
- TEST METHOD NOTES: Tritiated sulfonamide competitive binding to membranes from cells expressing hNav1.7 and the β1 subunit
- SETUP CONDITIONS: read-out: Ligand Binding Assay; 100 pM [3H]compound, membranes with hNav1.7 and β1 subunit, 18 h, room temperature
Structures can show the parent of a compound that is named as a salt.
REPORTED METRIC: IC50 (nM)
Please state the figure in nM; there is no need to write the unit.

[[record]]
molecule = "CS(=O)(=O)NC(=O)c1cc(C2CC2)c(OCC2CN(Cc3cccc(F)c3)C2)cc1F"
display_unit = "nM"
result_value = 1300

[[record]]
molecule = "O=C(NS(=O)(=O)C1CC1)c1cc(C2CC2)c(OCC2CCN(C3(c4cc(Cl)cc(Cl)c4)COC3)CC2)cc1F"
display_unit = "nM"
result_value = 5.2

[[record]]
molecule = "C[C@@H]1CC[C@@H](COc2cc(F)c(C(=O)NS(C)(=O)=O)cc2C2CC2)CN1[C@H](C)c1cc(Cl)cc(Cl)c1 [Example 343, trifluoroacetic acid salt]"
display_unit = "nM"
result_value = 8.4

[[record]]
molecule = "C[C@H]1[C@@H](Oc2cc(F)c(C(=O)NS(C)(=O)=O)cc2C2CC2)CCCN1Cc1cc(Cl)cc(Cl)c1 [Example 330, trifluoroacetic acid salt]"
display_unit = "nM"
result_value = 31.9

[[record]]
molecule = "CS(=O)(=O)NC(=O)c1cc(C2CC2)c(OCC2CCN(Cc3ccc(Cl)cc3C(F)(F)F)CC2)cc1F"
display_unit = "nM"
result_value = 2.9


Okay, next one:
stdin: Returns the measured IC50 for the input molecule. Input: CS(=O)(=O)NC(=O)c1cc(C2CC2)c(OCC2CCN(S(=O)(=O)c3ccc(Br)c(Cl)c3)CC2)cc1F
stdout: 18.5

====

- TARGET UNDER TEST: hNav1.7 (Homo sapiens (Human))
- TEST METHOD NOTES: Tritiated sulfonamide competitive binding to membranes from cells expressing hNav1.7 and the β1 subunit
- SETUP CONDITIONS: read-out: Ligand Binding Assay; 100 pM [3H]compound, membranes with hNav1.7 and β1 subunit, 18 h, room temperature
Where a name gives a salt, the structure may show the parent alone.
Recorded IC50, one value per entry.
Please state the figure in nM; there is no need to write the unit.

Check out these entries, answers already filled in.
[[record]]
compound = "COC[C@@H](c1ccc(Cl)c(Cl)c1)N1CCC(COc2cc(F)c(C(=O)NS(C)(=O)=O)cc2C2CC2)CC1 (single isomer, unassigned)"
target_under_test = "hNav1.7 (Homo sapiens (Human))"
result_value = 9.2

[[record]]
compound = "CS(=O)(=O)NC(=O)c1cc(C2CC2)c(OCC2CCN(Cc3cccc(F)c3)CC2)cc1F"
target_under_test = "hNav1.7 (Homo sapiens (Human))"
result_value = 92.8

[[record]]
compound = "COc1cccc(CN2CCC(C)(COc3cc(F)c(C(=O)NS(C)(=O)=O)cc3C3CC3)CC2)n1"
target_under_test = "hNav1.7 (Homo sapiens (Human))"
result_value = 270

[[record]]
compound = "CC1(COc2cc(F)c(C(=O)NS(C)(=O)=O)cc2C2CC2)CCN(C(c2ccccc2)c2ccccc2)CC1"
target_under_test = "hNav1.7 (Homo sapiens (Human))"
result_value = 2.9


stdin: Returns the measured IC50 for the input compound. Input: C[C@H](c1cc(Cl)cc(Cl)c1)N1CCC(COc2cc(F)c(C(=O)NS(C)(=O)=O)cc2C2CC2)CC1
stdout: 3.89

stdin: Returns the measured IC50 for the input compound. Input: CS(=O)(=O)NC(=O)c1cc(C2CC2)c(O[C@@H]2CCCN(CC3CCC4(CCC4)CC3)C2)cc1F [Example 444, trifluoroacetic acid salt]
stdout: 4.5

stdin: Returns the measured IC50 for the input compound. Input: CC1(COc2cc(F)c(C(=O)NS(C)(=O)=O)cc2C2CC2)CCN(C(=O)c2cc(Cl)ccc2Cl)CC1
stdout: 180

stdin: Returns the measured IC50 for the input compound. Input: COC[C@@H](c1cc(Cl)cc(Cl)c1)N1CCC(COc2cc(F)c(C(=O)NS(=O)(=O)N3CCC3)cc2C2CC2)CC1 (single isomer, unassigned)
stdout: 3.9

stdin: Returns the measured IC50 for the input compound. Input: O=C(NS(=O)(=O)C1CC1)c1cc(C2CC2)c(OCC2CCN(c3cc(C(F)(F)F)c(Cl)cn3)CC2)cc1F
stdout: 2.9

stdin: Returns the measured IC50 for the input compound. Input: CS(=O)(=O)NC(=O)c1cc(C2CC2)c(O[C@@H]2CCCN(Cc3cccc(OC(F)(F)F)c3)C2)cc1F [Example 437, trifluoroacetic acid salt]
stdout: 7.3

stdin: Returns the measured IC50 for the input compound. Input: CS(=O)(=O)NC(=O)c1cc(C2CC2)c(OCC2CN(C(c3ccccc3)c3ccc(C(F)(F)F)cc3)C2)cc1F (stereo not shown)
stdout: 2.99

stdin: Returns the measured IC50 for the input compound. Input: O=C(NS(=O)(=O)C1CC1)c1cc(C2CC2)c(OCC2CCN(Cc3ccc(C4CC4)cc3Cl)CC2)cc1F [Example 416, trifluoroacetic acid salt]
stdout: 5.3

====

- TARGET UNDER TEST: NaV1.5 (Homo sapiens (Human), UniProt Q14524)
- Sequence (Q14524 whole entry): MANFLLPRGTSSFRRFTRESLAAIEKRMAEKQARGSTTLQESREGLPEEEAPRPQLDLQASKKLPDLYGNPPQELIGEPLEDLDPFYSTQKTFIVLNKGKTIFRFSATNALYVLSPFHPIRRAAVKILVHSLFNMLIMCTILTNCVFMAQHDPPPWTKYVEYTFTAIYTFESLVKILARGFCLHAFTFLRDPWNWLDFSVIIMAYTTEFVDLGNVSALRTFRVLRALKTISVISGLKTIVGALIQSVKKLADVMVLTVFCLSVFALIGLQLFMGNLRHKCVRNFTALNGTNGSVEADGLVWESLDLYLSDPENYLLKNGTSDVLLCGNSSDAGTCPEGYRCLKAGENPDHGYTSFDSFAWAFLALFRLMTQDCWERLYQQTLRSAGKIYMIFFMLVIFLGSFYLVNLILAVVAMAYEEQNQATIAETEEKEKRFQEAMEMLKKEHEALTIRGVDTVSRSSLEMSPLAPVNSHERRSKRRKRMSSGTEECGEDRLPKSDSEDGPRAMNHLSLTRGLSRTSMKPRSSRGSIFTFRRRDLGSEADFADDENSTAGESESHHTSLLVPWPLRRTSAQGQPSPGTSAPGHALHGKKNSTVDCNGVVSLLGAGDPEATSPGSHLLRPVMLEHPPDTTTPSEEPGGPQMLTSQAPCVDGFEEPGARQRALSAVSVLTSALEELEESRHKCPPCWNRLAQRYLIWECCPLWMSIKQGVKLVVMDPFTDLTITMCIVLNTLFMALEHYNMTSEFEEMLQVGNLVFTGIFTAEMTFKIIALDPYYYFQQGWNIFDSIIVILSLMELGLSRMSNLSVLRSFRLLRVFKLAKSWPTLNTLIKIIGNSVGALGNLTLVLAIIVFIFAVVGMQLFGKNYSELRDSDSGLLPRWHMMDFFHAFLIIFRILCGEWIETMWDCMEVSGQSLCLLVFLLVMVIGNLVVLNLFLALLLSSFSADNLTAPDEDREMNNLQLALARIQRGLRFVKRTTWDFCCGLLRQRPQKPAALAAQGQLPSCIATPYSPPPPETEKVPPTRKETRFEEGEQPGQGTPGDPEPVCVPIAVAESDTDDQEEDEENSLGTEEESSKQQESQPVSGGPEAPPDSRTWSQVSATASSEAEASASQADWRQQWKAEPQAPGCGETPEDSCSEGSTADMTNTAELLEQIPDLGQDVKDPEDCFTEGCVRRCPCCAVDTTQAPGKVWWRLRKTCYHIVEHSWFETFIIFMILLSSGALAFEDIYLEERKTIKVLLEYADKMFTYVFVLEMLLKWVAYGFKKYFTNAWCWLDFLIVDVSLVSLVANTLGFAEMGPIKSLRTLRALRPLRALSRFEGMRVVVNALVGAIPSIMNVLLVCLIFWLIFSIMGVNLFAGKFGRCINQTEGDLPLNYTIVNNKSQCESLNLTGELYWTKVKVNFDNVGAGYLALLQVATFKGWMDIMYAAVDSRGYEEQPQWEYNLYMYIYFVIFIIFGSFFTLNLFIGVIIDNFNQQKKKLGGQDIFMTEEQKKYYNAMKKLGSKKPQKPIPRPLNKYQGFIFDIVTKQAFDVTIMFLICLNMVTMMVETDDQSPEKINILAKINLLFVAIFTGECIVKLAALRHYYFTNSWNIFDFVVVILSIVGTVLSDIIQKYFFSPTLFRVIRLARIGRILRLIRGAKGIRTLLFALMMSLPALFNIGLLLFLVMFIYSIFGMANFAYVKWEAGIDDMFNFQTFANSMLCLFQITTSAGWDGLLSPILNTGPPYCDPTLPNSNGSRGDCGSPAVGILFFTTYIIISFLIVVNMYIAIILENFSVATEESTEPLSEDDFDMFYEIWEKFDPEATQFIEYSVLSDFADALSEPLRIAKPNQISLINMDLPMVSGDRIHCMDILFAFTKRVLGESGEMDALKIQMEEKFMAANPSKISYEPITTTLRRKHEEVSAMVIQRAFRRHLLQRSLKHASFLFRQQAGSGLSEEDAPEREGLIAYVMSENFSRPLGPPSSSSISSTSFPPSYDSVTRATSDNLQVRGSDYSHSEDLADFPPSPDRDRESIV
- TEST METHOD NOTES: Patch voltage clamp electrophysiological assay (EP), NaV1.5
- SETUP CONDITIONS: read-out: NaV1.5 EP; HEK-293 cells stably expressing human NaV1.5 with β1 subunit, whole-cell patch clamp, holding −60 mV
REPORTED METRIC: IC50
Number first, unit second.

Check out these entries, answers already filled in.
[[record]]
molecule = "CC(C)Oc1ncc(CN2CCC(COc3cc(F)c(C(=O)NS(C)(=O)=O)cc3C3CC3)CC2)cc1Cl [Example 217]"
reported_metric = "IC50"
result_value = "0.19 µM"

[[record]]
molecule = "CS(=O)(=O)NC(=O)c1cc(C2CC2)c(O[C@@H]2CCCN(Cc3ccc(F)cc3Cl)C2)cc1F [Example 312]"
reported_metric = "IC50"
result_value = "0.31 µM"

[[record]]
molecule = "C[C@@H](c1cc(Cl)cc(Cl)c1)N1CCC(COc2cc(F)c(C(=O)NS(C)(=O)=O)cc2C2CC2)CC1 [Example 100]"
reported_metric = "IC50"
result_value = "0.552 µM"

[[record]]
molecule = "O=C(NS(=O)(=O)N1CCC1)c1cc(C2CC2)c(O[C@@H]2CCCN(Cc3ccccc3)C2)cc1F [Example 1]"
reported_metric = "IC50"
result_value = "2.76 µM"


Okay, next one:
stdin: Returns the measured IC50 for the input molecule. Input: CS(=O)(=O)NC(=O)c1cc(C2CC2)c(OCC2CCN(Cc3cc(F)cc(C(F)(F)F)c3)CC2)cc1F [Example 228]
stdout: 4.1 µM

====

Recorded pIC50, one value per entry.
- TARGET UNDER TEST: hNav1.7 (Homo sapiens (Human))
- TEST METHOD NOTES: Tritiated sulfonamide competitive binding to membranes from cells expressing hNav1.7 and the β1 subunit;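 also: Filter-bound radioactivity counted by liquid scintillation, nonspecific binding defined with excess unlabelled ligand, IC50 fitted to percent inhibition of specific binding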
- SETUP CONDITIONS: read-out: Ligand Binding Assay; 100 pM [3H]compound, membranes with hNav1.7 and β1 subunit, 18 h, room temperature
Structures can show the parent of a compound that is named as a salt.
Expect pIC50 as a plain number equal to -log10 of the molar concentration.

[[record]]
compound = "CC(c1cc(Cl)cc(Cl)c1)N1CC(COc2cc(F)c(C(=O)NS(C)(=O)=O)cc2C2CC2)C1 (stereo not drawn)"
result_value = 8.12


stdin: # value lookup — system hNav1.7 (Homo sapiens (Human)), readout pIC50, item CS(=O)(=O)NC(=O)c1cc(C2CC2)c(OCC2CCN(Cc3ccccc3Cl)CC2)cc1F
stdout: 7.49

stdin: # value lookup — system hNav1.7 (Homo sapiens (Human)), readout pIC50, item C[C@@H](c1cc(Cl)cc(Cl)c1)N1CCC(COc2cc(F)c(C(=O)NS(=O)(=O)C3CC3)cc2Cl)CC1 [Example 403, trifluoroacetic acid salt]
stdout: 7.77

stdin: # value lookup — system hNav1.7 (Homo sapiens (Human)), readout pIC50, item O=C(NS(=O)(=O)C1CC1)c1cc(C2CC2)c(OCC2CCN(C(c3ccc(Cl)cc3)c3ccc(Cl)cc3)CC2)cc1F [Example 400, trifluoroacetic acid salt]
stdout: 8.68

stdin: # value lookup — system hNav1.7 (Homo sapiens (Human)), readout pIC50, item CC1(COc2cc(F)c(C(=O)NS(=O)(=O)C3CC3)cc2C2CC2)CN(c2cc(Cl)ncc2C(F)(F)F)C1 [Example 487, trifluoroacetic acid salt]
stdout: 7.87

stdin: # value lookup — system hNav1.7 (Homo sapiens (Human)), readout pIC50, item CS(=O)(=O)NC(=O)c1cc(C2CC2)c(OCC2(F)CN(Cc3ccccc3)C2)cc1F
stdout: 7.04
